Measured recombinant barcode read abundance (log10) accompanies every entry in the list below.
# Experiment Summary: recombinant barcode read abundance after kanamycin selection (control-corrected) (log10(CPM+1)); higher = more efficient recombination; sequences stand for … in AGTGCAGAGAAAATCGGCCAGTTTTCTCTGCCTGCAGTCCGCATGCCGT…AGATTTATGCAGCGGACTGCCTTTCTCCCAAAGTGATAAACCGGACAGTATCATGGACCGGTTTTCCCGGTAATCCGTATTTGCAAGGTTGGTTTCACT; site = the 11-nt target
No unit in the answer, only the number.

TGTTAGACTTGGGTTCTAACCTGTTGCCT (site TGTTAGACTAG) :: 0.164
GGCCGAACTTGGGTTCTAACCTGTTGCCT (site GGCCGAACTAG) :: 0.211
TGAAAGCCTTGGGTTCTAACCTGTTGCTT (site TGAAAGCCTAA) :: 0.215
TCGCATTCTTGGGTTCTAACCTGTTGCAT (site TCGCGTTCTAA) :: 0.198
TCAGACCCTTGGGTTCTAACCTGTTGCCT (site TCAGACCCTAG) :: 2.31
AAGCAAACTTGGGTTCTAACCTGTTGCCT (site AAGCCAACTAG) :: 0.0799

Tell me the measured recombinant barcode read abundance (log10) of CGATGGCCTTGGGTTCTAACCTGTTGCAT (site CGATGGCCTAT) , please.
0.433

Tell me the measured recombinant barcode read abundance (log10) of GCCTTGGCTTGGGTTCTAACCTGTTGCCT (site GCCTTGGCTAG) , please.
0.572

Tell me the measured recombinant barcode read abundance (log10) of TAGTGTCCTTGGGTTCTAACCTGTTGCCA (site TAGTGTCCTTG) , please.
0.357

Tell me the measured recombinant barcode read abundance (log10) of GAGTTACCTTGGGTTCTAACCTGTTGCGT (site GAGTTCCCTAC) , please.
0.192

Tell me the measured recombinant barcode read abundance (log10) of ACGCGAGCTTGGGTTCTAACCTGTTGCAG (site ACGCGAGCTCT) , please.
0.142

Tell me the measured recombinant barcode read abundance (log10) of TGGATCACTTGGGTTCTAACCTGTTGCCT (site TGGACCACTAG) , please.
0.0457

Tell me the measured recombinant barcode read abundance (log10) of AATGCTACTTGGGTTCTAACCTGTTGCCA (site AATGCTACTTG) , please.
0.266

Tell me the measured recombinant barcode read abundance (log10) of GGGTCGGCTTGGGTTCTAACCTGTTGCGC (site GGGTCGGCTAC) , please.
0.0769

Tell me the measured recombinant barcode read abundance (log10) of TGGGTGACTTGGGTTCTAACCTGTTGCCT (site TGGGTGACTAG) , please.
0.057

Tell me the measured recombinant barcode read abundance (log10) of CACGGGGCTTGGGTTCTAACCTGTTGCCT (site ATGCTACCTCC) , please.
0.0666

Tell me the measured recombinant barcode read abundance (log10) of TAGTTTACTTGGGTTCTAACCTGTTGCCA (site TAGTTGACTTG) , please.
0.0764

Tell me the measured recombinant barcode read abundance (log10) of TGTACGCCTTGGGTTCTAACCTGTTGCCT (site GAGGTAACTGT) , please.
0.0511

* * *

Measured recombinant UMI read abundance (log10) accompanies every entry in the list below.
# Experiment Summary: recombinant UMI read abundance after kanamycin selection (control-corrected) (log10(CPM+1)); higher = more efficient recombination; extreme values may be limits of the assay; sequences stand for … in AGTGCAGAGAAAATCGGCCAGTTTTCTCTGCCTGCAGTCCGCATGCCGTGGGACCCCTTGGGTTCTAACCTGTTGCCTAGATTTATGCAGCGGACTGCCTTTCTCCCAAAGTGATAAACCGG…AGGTTGGTTTCACT; site = the 11-nt donor
No unit in the answer, only the number.

CAAGGGGCATGGACCGGTTTTCCCGGTAATCCGTATTTGTT (site CAAGGGGCTAA) :: 2.43

Tell me the measured recombinant UMI read abundance (log10) of AGTAATCCATGGACCGGTTTTCCCGGTAATCCGTATTTGGT (site AGTAATCCTAC) , please.
0.00506

Tell me the measured recombinant UMI read abundance (log10) of GTAGGTACATGGACCGGTTTTCCCGGTAATCCGTATTTGCC (site GTAGGTACTGT) , please.
0.441

Tell me the measured recombinant UMI read abundance (log10) of GGCCCCCCATGGACCGGTTTTCCCGGTAATCCGTATTTGTT (site GGCCGCCCTAA) , please.
0.0281

Tell me the measured recombinant UMI read abundance (log10) of GACGTAACATGGACCGGTTTTCCCGGTAATCCGTATTTGTA (site GACGTAACTTA) , please.
2.19

Tell me the measured recombinant UMI read abundance (log10) of CACGCAGCATGGACCGGTTTTCCCGGTAATCCGTATTTGCT (site CAGGCAGCTAG) , please.
0.261

Tell me the measured recombinant UMI read abundance (log10) of GAAACCTCATGGACCGGTTTTCCCGGTAATCCGTATTTGGG (site GAAACCTCTCC) , please.
0.698

Tell me the measured recombinant UMI read abundance (log10) of GATGGGACATGGACCGGTTTTCCCGGTAATCCGTATTTGAC (site GATCGGACTGT) , please.
0.285

Tell me the measured recombinant UMI read abundance (log10) of AATGTAACATGGACCGGTTTTCCCGGTAATCCGTATTTGCG (site AATGTAACTGG) , please.
0

* * *

# Experiment Summary: recombinant UMI read abundance after kanamycin selection (control-corrected) (log10(CPM+1)); higher = more efficient recombination; extreme values may be limits of the assay; sequences stand for … in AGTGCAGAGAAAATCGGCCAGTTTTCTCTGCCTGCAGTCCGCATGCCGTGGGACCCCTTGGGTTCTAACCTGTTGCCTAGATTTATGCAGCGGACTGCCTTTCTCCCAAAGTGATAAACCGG…AGGTTGGTTTCACT; site = the 11-nt donor
Measured recombinant UMI read abundance (log10) accompanies every entry in the list below.
No unit in the answer, only the number.

Answered cases to consult:
ATGCGTTCATGGACCGGTTTTCCCGGTAATCCGTATTTGCG (site ATGCGTTCTCG) :: 1.96
ACAGTATCATGGACCGGTTTTCCCGGTAATCCGTATTTGCG (site ACAGTATCTTG) :: 2.57
ATGTCCGCATGGACCGGTTTTCCCGGTAATCCGTATTTGCC (site ATGTCCGCTGG) :: 2.45
AATTATGCATGGACCGGTTTTCCCGGTAATCCGTATTTGGA (site AATAATGCTTC) :: 0.535
CTCCGTACATGGACCGGTTTTCCCGGTAATCCGTATTTGCT (site CCCCGTACTAG) :: 1.28
CAAGGGCCATGGACCGGTTTTCCCGGTAATCCGTATTTGTG (site CAAGAGCCTCA) :: 0.431

Tell me the measured recombinant UMI read abundance (log10) of CGATCATCATGGACCGGTTTTCCCGGTAATCCGTATTTGCT (site GGATCATCTAT) , please.
0.0067

Tell me the measured recombinant UMI read abundance (log10) of GCTAGCCCATGGACCGGTTTTCCCGGTAATCCGTATTTGAT (site GCTGGCCCTAT) , please.
0.00566

Tell me the measured recombinant UMI read abundance (log10) of ACCTAGACATGGACCGGTTTTCCCGGTAATCCGTATTTGTG (site ACCTAGACTCT) , please.
0.22

* * *

# Experiment Summary: recombinant UMI read abundance after kanamycin selection (control-corrected) (log10(CPM+1)); higher = more efficient recombination; extreme values may be limits of the assay; sequences stand for … in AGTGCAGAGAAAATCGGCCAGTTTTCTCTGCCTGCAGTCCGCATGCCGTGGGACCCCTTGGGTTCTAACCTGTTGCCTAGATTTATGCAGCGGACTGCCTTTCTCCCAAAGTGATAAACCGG…AGGTTGGTTTCACT; site = the 11-nt donor
Measure: recombinant UMI read abundance (log10)
No unit in the answer, only the number.

Answered cases to consult:
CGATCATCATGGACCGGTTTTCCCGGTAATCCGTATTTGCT (site CGAGCAGCTAG) :: 0
GTTAGAACATGGACCGGTTTTCCCGGTAATCCGTATTTGGC (site GCTAGAACTGC) :: 0

Tell me the measured recombinant UMI read abundance (log10) of ACACCAACATGGACCGGTTTTCCCGGTAATCCGTATTTGTC (site ACACTAACTGA) , please.
0

Tell me the measured recombinant UMI read abundance (log10) of CGTTTGGCATGGACCGGTTTTCCCGGTAATCCGTATTTGCG (site CGTTTGGCTGG) , please.
0

Tell me the measured recombinant UMI read abundance (log10) of CAACATACATGGACCGGTTTTCCCGGTAATCCGTATTTGTG (site CAACATACTCA) , please.
1.83

Tell me the measured recombinant UMI read abundance (log10) of CAGTTTACATGGACCGGTTTTCCCGGTAATCCGTATTTGCT (site CGGTTTACTAG) , please.
0

Tell me the measured recombinant UMI read abundance (log10) of CGGGCTGCATGGACCGGTTTTCCCGGTAATCCGTATTTGAG (site CGGGCTGCTCT) , please.
1.37

Tell me the measured recombinant UMI read abundance (log10) of TCGCCATCATGGACCGGTTTTCCCGGTAATCCGTATTTGGC (site GAAGGCCCTAG) , please.
0
